From: ChEMBL document CHEMBL1177813

molecular target: Gastrin/cholecystokinin type B receptor (Homo sapiens); test: Displacement of [125I]CCK-8(SO3) from human CCK2 receptor expressed in human HEK293 cells; type: cell-based; settings: read-out: Ki
Quick reference: Ki of the listed items.

Compound: N=C(N)NCCC[C@@H]1NC(=O)[C@H](Cc2ccc(Cl)cc2)NC(=O)[C@H](Cc2cnc[nH]2)NC(=O)CNC(=O)[C@H](NC(=O)[C@@H](N)Cc2ccc(O)cc2)CC(=O)NCCCC[C@@H](C(=O)N[C@@H](CC(=O)O)C(=O)N[C@H](Cc2ccccc2)C(N)=O)NC(=O)[C@H](Cc2cc3ccccc3[nH]2)NC1=O
Unit Of Measure: nM
Ki: 930

Compound: CCCC[C@H](NC(=O)[C@H](Cc1c[nH]c2ccccc12)NC(=O)[C@H](CCCN=C(N)N)NC(=O)[C@@H](Cc1ccc2ccccc2c1)NC(=O)[C@H](Cc1cnc[nH]1)NC(=O)[C@H](Cc1ccccc1)NC(=O)[C@@H](C)NC(=O)[C@@H](N)Cc1c(C)cc(O)cc1C)C(=O)N[C@@H](CC(=O)O)C(=O)N[C@@H](Cc1ccccc1)C(N)=O
Unit Of Measure: nM
Ki: 180

Compound: CCCC[C@H](NC(=O)[C@H](Cc1c[nH]c2ccccc12)NC(=O)[C@H](CCCNC(=N)N)NC(=O)[C@@H](Cc1ccc2ccccc2c1)NC(=O)[C@H](Cc1cnc[nH]1)NC(=O)[C@@H]1Cc2ccccc2CN1C(=O)C(N)Cc1c(C)cc(O)cc1C)C(=O)N[C@@H](CC(=O)O)C(=O)N[C@@H](Cc1ccccc1)C(N)=O (single isomer, unassigned)
Unit Of Measure: nM
Ki: 200

Compound: CCCC[C@H](NC(=O)[C@H](Cc1c[nH]c2ccccc12)NC(=O)[C@H](CCCNC(=N)N)NC(=O)[C@@H](Cc1ccc2ccccc2c1)NC(=O)[C@H](Cc1cnc[nH]1)NC(=O)[C@H](Cc1ccccc1)NC(=O)CNC(=O)[C@@H](C)NC(=O)[C@@H](N)Cc1c(C)cc(O)cc1C)C(=O)N[C@@H](CC(=O)O)C(=O)N[C@@H](Cc1ccccc1)C(N)=O
Unit Of Measure: nM
Ki: 110

Compound: CCCC[C@H](NC(=O)[C@H](Cc1c[nH]c2ccccc12)NC(=O)[C@H](CCCNC(=N)N)NC(=O)[C@@H](Cc1ccc2ccccc2c1)NC(=O)[C@H](Cc1cnc[nH]1)NC(=O)[C@H](Cc1ccccc1)NC(=O)CNC(=O)[C@@H](C)NC(=O)[C@@H](N)Cc1ccc(O)cc1)C(=O)N[C@@H](CC(=O)O)C(=O)N[C@@H](Cc1ccccc1)C(N)=O
Unit Of Measure: nM
Ki: 120

Compound: CCCC[C@H](NC(=O)[C@H](Cc1c[nH]c2ccccc12)NC(=O)[C@H](CCCNC(=N)N)NC(=O)[C@@H](Cc1ccccc1)NC(=O)[C@H](Cc1cnc[nH]1)NC(=O)[C@H](Cc1ccccc1)NC(=O)CNC(=O)[C@@H](C)NC(=O)[C@@H](N)Cc1ccc(O)cc1)C(=O)N[C@@H](CC(=O)O)C(=O)N[C@@H](Cc1ccccc1)C(N)=O
Unit Of Measure: nM
Ki: 18

Compound: CCCC[C@H](NC(=O)[C@H](Cc1c[nH]c2ccccc12)NC(=O)[C@H](CCCNC(=N)N)NC(=O)[C@@H](Cc1ccc2ccccc2c1)NC(=O)[C@H](Cc1cnc[nH]1)NC(=O)[C@H](Cc1ccccc1)NC(=O)[C@@H](C)NC(=O)[C@@H](N)Cc1ccc(O)cc1)C(=O)N[C@@H](CC(=O)O)C(=O)N[C@@H](Cc1ccccc1)C(N)=O
Unit Of Measure: nM
Ki: 190

Compound: CCCC[C@H](NC(=O)[C@H](Cc1c[nH]c2ccccc12)NC(=O)[C@H](CCCN=C(N)N)NC(=O)[C@@H](Cc1ccc2ccccc2c1)NC(=O)[C@H](Cc1cnc[nH]1)NC(=O)[C@H]1Cc2ccccc2CN1C(=O)[C@@H](N)Cc1c(C)cc(O)cc1C)C(=O)N[C@@H](CC(=O)O)C(=O)N[C@@H](Cc1ccccc1)C(N)=O
Unit Of Measure: nM
Ki: 100

----------
molecular target: Delta-type opioid receptor (Homo sapiens, UniProt P41143); assay: Displacement of [3H]DPDPE from human delta opioid receptor expressed in mouse HN9.10 cells
Sequence (P41143 whole entry): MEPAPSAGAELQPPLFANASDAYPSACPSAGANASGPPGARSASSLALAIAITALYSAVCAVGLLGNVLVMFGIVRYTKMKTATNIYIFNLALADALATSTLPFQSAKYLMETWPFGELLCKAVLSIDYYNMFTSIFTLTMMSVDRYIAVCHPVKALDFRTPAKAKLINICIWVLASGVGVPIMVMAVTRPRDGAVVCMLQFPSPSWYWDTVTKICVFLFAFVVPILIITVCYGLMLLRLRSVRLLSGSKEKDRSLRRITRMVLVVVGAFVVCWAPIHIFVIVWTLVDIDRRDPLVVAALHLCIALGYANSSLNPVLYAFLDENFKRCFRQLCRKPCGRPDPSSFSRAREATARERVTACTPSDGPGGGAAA
pIC50: −log10 of the molar value.

Compound: CCCC[C@H](NC(=O)[C@H](Cc1c[nH]c2ccccc12)NC(=O)[C@H](CCCNC(=N)N)NC(=O)[C@@H](Cc1ccc2ccccc2c1)NC(=O)[C@H](Cc1cnc[nH]1)NC(=O)[C@H](Cc1ccccc1)NC(=O)[C@@H](C)NC(=O)[C@@H](N)Cc1ccc(O)cc1)C(=O)N[C@@H](CC(=O)O)C(=O)N[C@@H](Cc1ccccc1)C(N)=O
Assay System: Delta-type opioid receptor (Homo sapiens, UniProt P41143)
pIC50: 7.10
--
Compound: CCCC[C@H](NC(=O)[C@H](Cc1c[nH]c2ccccc12)NC(=O)[C@H](CCCNC(=N)N)NC(=O)[C@@H](Cc1ccc2ccccc2c1)NC(=O)[C@H](Cc1cnc[nH]1)NC(=O)[C@@H]1Cc2ccccc2CN1C(=O)C(N)Cc1c(C)cc(O)cc1C)C(=O)N[C@@H](CC(=O)O)C(=O)N[C@@H](Cc1ccccc1)C(N)=O (single isomer, unassigned)
Assay System: Delta-type opioid receptor (Homo sapiens, UniProt P41143)
pIC50: 8.70
--
Compound: CCCC[C@H](NC(=O)[C@H](Cc1c[nH]c2ccccc12)NC(=O)[C@H](CCCN=C(N)N)NC(=O)[C@@H](Cc1ccc2ccccc2c1)NC(=O)[C@H](Cc1cnc[nH]1)NC(=O)[C@H]1Cc2ccccc2CN1C(=O)[C@@H](N)Cc1c(C)cc(O)cc1C)C(=O)N[C@@H](CC(=O)O)C(=O)N[C@@H](Cc1ccccc1)C(N)=O
Assay System: Delta-type opioid receptor (Homo sapiens, UniProt P41143)
pIC50: 7.90
--
Compound: CCCC[C@H](NC(=O)[C@H](Cc1c[nH]c2ccccc12)NC(=O)[C@H](CCCNC(=N)N)NC(=O)[C@@H](Cc1ccccc1)NC(=O)[C@H](Cc1cnc[nH]1)NC(=O)[C@H](Cc1ccccc1)NC(=O)CNC(=O)[C@@H](C)NC(=O)[C@@H](N)Cc1ccc(O)cc1)C(=O)N[C@@H](CC(=O)O)C(=O)N[C@@H](Cc1ccccc1)C(N)=O
Assay System: Delta-type opioid receptor (Homo sapiens, UniProt P41143)
pIC50: 7.90
--
Compound: Cc1cc(O)cc(C)c1C[C@H](N)C(=O)N1CC(=O)N[C@@H](Cc2cnc[nH]2)C(=O)N[C@H](Cc2ccc3ccccc3c2)C(=O)N[C@@H](CCCNC(=N)N)C(=O)N[C@@H](Cc2c[nH]c3ccccc23)C(=O)N[C@H](C(=O)N[C@@H](CC(=O)O)C(=O)N[C@@H](Cc2ccccc2)C(N)=O)CSSC[C@@H](N)C1=O
Assay System: Delta-type opioid receptor (Homo sapiens, UniProt P41143)
pIC50: 7.90
--
Compound: CCCC[C@H](NC(=O)[C@H](Cc1c[nH]c2ccccc12)NC(=O)[C@H](CCCNC(=N)N)NC(=O)[C@@H](Cc1ccc2ccccc2c1)NC(=O)[C@H](Cc1cnc[nH]1)NC(=O)[C@H](Cc1ccccc1)NC(=O)CNC(=O)[C@@H](C)NC(=O)[C@@H](N)Cc1ccc(O)cc1)C(=O)N[C@@H](CC(=O)O)C(=O)N[C@@H](Cc1ccccc1)C(N)=O
Assay System: Delta-type opioid receptor (Homo sapiens, UniProt P41143)
pIC50: 8.20
--
Compound: N=C(N)NCCC[C@@H]1NC(=O)[C@H](Cc2ccc(Cl)cc2)NC(=O)[C@H](Cc2cnc[nH]2)NC(=O)CNC(=O)[C@H](NC(=O)[C@@H](N)Cc2ccc(O)cc2)CC(=O)NCCCC[C@@H](C(=O)N[C@@H](CC(=O)O)C(=O)N[C@H](Cc2ccccc2)C(N)=O)NC(=O)[C@H](Cc2cc3ccccc3[nH]2)NC1=O
Assay System: Delta-type opioid receptor (Homo sapiens, UniProt P41143)
pIC50: 5.60
--
Compound: CCCC[C@H](NC(=O)[C@H](Cc1c[nH]c2ccccc12)NC(=O)[C@H](CCCN=C(N)N)NC(=O)[C@@H](Cc1ccc2ccccc2c1)NC(=O)[C@H](Cc1cnc[nH]1)NC(=O)[C@H](Cc1ccccc1)NC(=O)[C@@H](C)NC(=O)[C@@H](N)Cc1c(C)cc(O)cc1C)C(=O)N[C@@H](CC(=O)O)C(=O)N[C@@H](Cc1ccccc1)C(N)=O
Assay System: Delta-type opioid receptor (Homo sapiens, UniProt P41143)
pIC50: 8.10

----------
target: Gastrin/cholecystokinin type B receptor (Homo sapiens, UniProt P32239); assay: Displacement of [125I]CCK-8(SO3) from human CCK2 receptor expressed in human HEK293 cells
Sequence (P32239 whole entry): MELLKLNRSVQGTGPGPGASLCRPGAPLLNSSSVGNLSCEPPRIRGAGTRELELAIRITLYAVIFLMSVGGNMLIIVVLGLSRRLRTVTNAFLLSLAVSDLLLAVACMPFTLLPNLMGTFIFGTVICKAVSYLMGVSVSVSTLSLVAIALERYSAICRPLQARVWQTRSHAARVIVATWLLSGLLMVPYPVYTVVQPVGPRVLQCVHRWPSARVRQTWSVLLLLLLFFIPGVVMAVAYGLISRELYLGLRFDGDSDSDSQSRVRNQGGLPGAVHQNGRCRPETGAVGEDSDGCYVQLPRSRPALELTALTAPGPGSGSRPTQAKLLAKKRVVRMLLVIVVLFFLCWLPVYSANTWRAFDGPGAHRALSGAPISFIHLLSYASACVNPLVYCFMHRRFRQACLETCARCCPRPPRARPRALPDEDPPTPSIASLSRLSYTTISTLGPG
Quick reference: IC50 of the listed items.

Compound: N=C(N)NCCC[C@@H]1NC(=O)[C@H](Cc2ccc(Cl)cc2)NC(=O)[C@H](Cc2cnc[nH]2)NC(=O)CNC(=O)[C@H](NC(=O)[C@@H](N)Cc2ccc(O)cc2)CC(=O)NCCCC[C@@H](C(=O)N[C@@H](CC(=O)O)C(=O)N[C@H](Cc2ccccc2)C(N)=O)NC(=O)[C@H](Cc2cc3ccccc3[nH]2)NC1=O
IC50 (µM): 1
//
Compound: CCCC[C@H](NC(=O)[C@H](Cc1c[nH]c2ccccc12)NC(=O)[C@H](CCCNC(=N)N)NC(=O)[C@@H](Cc1ccc2ccccc2c1)NC(=O)[C@H](Cc1cnc[nH]1)NC(=O)[C@@H]1Cc2ccccc2CN1C(=O)C(N)Cc1c(C)cc(O)cc1C)C(=O)N[C@@H](CC(=O)O)C(=O)N[C@@H](Cc1ccccc1)C(N)=O (single isomer, unassigned)
IC50 (µM): 0.2
//
Compound: CCCC[C@H](NC(=O)[C@H](Cc1c[nH]c2ccccc12)NC(=O)[C@H](CCCN=C(N)N)NC(=O)[C@@H](Cc1ccc2ccccc2c1)NC(=O)[C@H](Cc1cnc[nH]1)NC(=O)[C@H](Cc1ccccc1)NC(=O)[C@@H](C)NC(=O)[C@@H](N)Cc1c(C)cc(O)cc1C)C(=O)N[C@@H](CC(=O)O)C(=O)N[C@@H](Cc1ccccc1)C(N)=O
IC50 (µM): 0.2
